Data credit: patent US10189809B2

biological target: soluble guanylate cyclase (sGC) (Homo sapiens (Human), UniProt Q02108+Q02153); experiment: sGC-HEK-cGMP assay run with SNP incubation (HEK WC assay); type: cell-based; settings: read-out: HEK WC Assay (% Emax at 1 μM with 10 uM SNP)
Sequence (Q02153 whole entry): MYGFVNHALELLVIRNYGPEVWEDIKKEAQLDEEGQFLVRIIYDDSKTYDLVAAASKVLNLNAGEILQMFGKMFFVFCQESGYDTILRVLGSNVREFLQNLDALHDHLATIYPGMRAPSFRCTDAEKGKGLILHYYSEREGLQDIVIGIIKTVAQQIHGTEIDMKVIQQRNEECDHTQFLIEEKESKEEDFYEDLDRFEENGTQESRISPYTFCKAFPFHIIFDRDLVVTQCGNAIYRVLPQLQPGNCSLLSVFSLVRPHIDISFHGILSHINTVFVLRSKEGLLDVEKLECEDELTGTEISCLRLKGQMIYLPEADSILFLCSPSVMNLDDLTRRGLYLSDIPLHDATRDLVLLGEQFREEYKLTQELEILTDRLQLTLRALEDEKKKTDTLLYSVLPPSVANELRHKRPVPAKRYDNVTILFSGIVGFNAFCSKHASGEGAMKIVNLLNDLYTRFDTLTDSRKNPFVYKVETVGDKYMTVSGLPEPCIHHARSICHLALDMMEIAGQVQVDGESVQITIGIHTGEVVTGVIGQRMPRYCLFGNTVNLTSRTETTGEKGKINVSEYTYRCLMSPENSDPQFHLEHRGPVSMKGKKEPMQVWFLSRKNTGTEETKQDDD
Sequence (Q02108 whole entry): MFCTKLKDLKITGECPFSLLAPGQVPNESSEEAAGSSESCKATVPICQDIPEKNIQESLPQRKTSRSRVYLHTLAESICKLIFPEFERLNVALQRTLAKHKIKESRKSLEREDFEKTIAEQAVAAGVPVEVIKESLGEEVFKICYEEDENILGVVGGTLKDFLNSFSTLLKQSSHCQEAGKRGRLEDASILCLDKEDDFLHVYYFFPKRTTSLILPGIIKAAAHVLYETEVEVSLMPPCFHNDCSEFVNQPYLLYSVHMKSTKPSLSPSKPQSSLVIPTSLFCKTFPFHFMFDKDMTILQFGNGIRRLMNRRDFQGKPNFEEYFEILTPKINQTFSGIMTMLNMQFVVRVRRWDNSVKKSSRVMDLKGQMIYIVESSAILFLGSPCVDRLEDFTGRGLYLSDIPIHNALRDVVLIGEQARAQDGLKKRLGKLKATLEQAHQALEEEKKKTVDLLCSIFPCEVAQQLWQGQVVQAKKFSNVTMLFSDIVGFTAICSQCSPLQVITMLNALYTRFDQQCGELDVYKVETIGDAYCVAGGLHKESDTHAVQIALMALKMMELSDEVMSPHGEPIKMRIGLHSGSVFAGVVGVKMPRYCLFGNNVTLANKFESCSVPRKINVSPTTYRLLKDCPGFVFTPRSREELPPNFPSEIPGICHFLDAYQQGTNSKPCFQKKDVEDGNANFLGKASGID
The entries below are paired with their reported Emax.

Recorded Emax, per entry:
Nc1nc(-c2cc(-c3ccon3)n(Cc3ccccc3F)n2)ncc1NC(=O)[C@@H]1CCCN1 [Compound I-225]: 0 to 10%
[2H]C([2H])([2H])C(=O)Nc1cnc(-c2cc(-c3ccon3)n(Cc3ccccc3F)n2)nc1N [Compound I-263]: 40 to 60%
Oc1cc(O)nc(-c2cc(-c3ccon3)n(Cc3ccccc3F)n2)n1 [Compound I-261]: 0 to 10%

Prompt: For the molecule Nc1nc(-c2cc(-c3ccon3)n(Cc3ccccc3F)n2)ncc1NC(=O)c1ccccc1OC(F)(F)F [Compound I-211] , what Emax is on record?
Response: 20 to 40%
